system: PC-3; experiment: Antiproliferative activity against human PC3 cell line at 5 uM by MTT assay; assay type: functional

| COMPOUND | OUTPUT UNIT | inhibition at 5 µM |
| --- | --- | --- |
| COc1cc(C2=NN(C(C)=O)C(c3cccc(OC)c3OC)O2)cc(OC)c1OC (stereo not given) | % | 58.2 |
| COc1cc(C(=O)N/N=C/c2ccc(F)c(F)c2)cc(OC)c1OC | % | 43.7 |
| COc1cc(C2=NN(C(C)=O)C(c3cccc(C(F)(F)F)c3)O2)cc(OC)c1OC (stereo not given) | % | 43.6 |
| COc1cc(C2=NN(C(C)=O)C(c3ccccc3F)O2)cc(OC)c1OC (stereo not given) | % | 31.6 |
| COc1cc(C2=NN(C(C)=O)C(c3ccccc3C(F)(F)F)O2)cc(OC)c1OC (stereo not given) | % | 15.2 |
| COc1cc(C(=O)N/N=C/c2ccc(F)cc2)cc(OC)c1OC | % | 82.8 |
| COc1cc(C2=NN(C(C)=O)C(c3cccc(F)c3)O2)cc(OC)c1OC (stereo not given) | % | 43.5 |
| COc1cc(C(=O)N/N=C/c2ccccc2C(F)(F)F)cc(OC)c1OC | % | 52.9 |
| COc1cc(C2=NN(C(C)=O)C(c3ccc(F)cc3)O2)cc(OC)c1OC (stereo not given) | % | 0.1 |
| COc1ccc(OC)c(C2OC(c3cc(OC)c(OC)c(OC)c3)=NN2C(C)=O)c1 (stereo not given) | % | 43.2 |

====

test system: Bcap37; assay: Antiproliferative activity against human Bcap37 cell line at 1 uM by MTT assay; format: functional

| MOLECULE | inhibition at 1 µM [%] |
| --- | --- |
| COc1cc(C(=O)N/N=C/c2cccc(F)c2)cc(OC)c1OC | 38 |
| COc1cc(C2=NN(C(C)=O)C(c3c(Cl)cccc3Cl)O2)cc(OC)c1OC (stereo not given) | 9.3 |
| COc1cc(C2=NN(C(C)=O)C(c3cccc(F)c3)O2)cc(OC)c1OC (stereo not given) | 14 |
| COc1cc(C2=NN(C(C)=O)C(c3ccc(F)cc3)O2)cc(OC)c1OC (stereo not given) | -1.4 |
| COc1cc(C2=NN(C(C)=O)C(c3cccc(C(F)(F)F)c3)O2)cc(OC)c1OC (stereo not given) | 10.1 |
| COc1cc(C2=NN(C(C)=O)C(c3cc(OC)c(OC)c(OC)c3)O2)cc(OC)c1OC (stereo not given) | 5.1 |
| COc1cc(C2=NN(C(C)=O)C(c3cccc(OC)c3OC)O2)cc(OC)c1OC (stereo not given) | 0.1 |
| COc1cc(C2=NN(C(C)=O)C(c3cc(Cl)cc(Cl)c3)O2)cc(OC)c1OC (stereo not given) | -1.1 |
| COc1cc(C(=O)N/N=C/c2ccc(F)c(F)c2)cc(OC)c1OC | 58.5 |
| COc1cc(C(=O)N/N=C/c2ccccc2F)cc(OC)c1OC | 58.9 |
| COc1cc(C2=NN(C(C)=O)C(c3ccc(C(F)(F)F)cc3)O2)cc(OC)c1OC (stereo not given) | -3.5 |
| COc1ccc(OC)c(/C=N/NC(=O)c2cc(OC)c(OC)c(OC)c2)c1 | 0 |
| COc1cc(C(=O)N/N=C/c2ccc(C(F)(F)F)cc2)cc(OC)c1OC | 61.8 |
| COc1cc(C(=O)N/N=C/c2cccc(C(F)(F)F)c2)cc(OC)c1OC | 8.3 |
| COc1ccc(/C=N/NC(=O)c2cc(OC)c(OC)c(OC)c2)c(OC)c1 | -3 |
| COc1cc(C(=O)N/N=C/c2c(Cl)cccc2Cl)cc(OC)c1OC | -7.2 |
| COc1cccc(/C=N/NC(=O)c2cc(OC)c(OC)c(OC)c2)c1OC | -2.3 |
| COc1cc(C2=NN(C(C)=O)C(c3ccc(F)c(F)c3)O2)cc(OC)c1OC (stereo not given) | -1.3 |
| COc1ccc(C2OC(c3cc(OC)c(OC)c(OC)c3)=NN2C(C)=O)c(OC)c1 (stereo not given) | -0.3 |
| COc1cc(/C=N/NC(=O)c2cc(OC)c(OC)c(OC)c2)cc(OC)c1OC | 11.8 |
| COc1cc(C2=NN(C(C)=O)C(c3ccccc3C(F)(F)F)O2)cc(OC)c1OC (stereo not given) | -1.2 |
| COc1cc(C2=NN(C(C)=O)C(c3ccc(Cl)c(Cl)c3)O2)cc(OC)c1OC (stereo not given) | -3.2 |
| COc1cc(C(=O)N/N=C/c2ccc(F)cc2)cc(OC)c1OC | 50.2 |
| COc1cc(C(=O)N/N=C/c2ccc(Cl)c([N+](=O)[O-])c2)cc(OC)c1OC | -4.4 |
| COc1cc(C(=O)N/N=C/c2cc(Cl)cc(Cl)c2)cc(OC)c1OC | -5.4 |
